Target: HIV-1 94UG103 Env (clade A pseudovirus) (HIV-1)
Assay: cell-based or functional assay
endpoint-name: IC50 (µg/mL), pseudovirus neutralization

1496_C09 (PG9) (TCN-109) (antibody, V domains shown) VH: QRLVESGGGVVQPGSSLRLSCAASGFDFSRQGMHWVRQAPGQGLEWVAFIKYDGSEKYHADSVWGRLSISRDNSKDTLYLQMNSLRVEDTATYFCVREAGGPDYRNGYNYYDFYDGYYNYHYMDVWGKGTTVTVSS VL: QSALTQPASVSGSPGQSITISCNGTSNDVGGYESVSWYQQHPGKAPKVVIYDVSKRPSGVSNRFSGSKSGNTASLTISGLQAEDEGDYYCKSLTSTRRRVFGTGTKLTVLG
0.17
1443_C16 (PG16) (TCN-116) (antibody, V domains shown) VH: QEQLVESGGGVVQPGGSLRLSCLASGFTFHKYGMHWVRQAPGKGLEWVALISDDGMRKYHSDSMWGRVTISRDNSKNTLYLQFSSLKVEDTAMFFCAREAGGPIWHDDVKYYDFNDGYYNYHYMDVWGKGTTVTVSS VL: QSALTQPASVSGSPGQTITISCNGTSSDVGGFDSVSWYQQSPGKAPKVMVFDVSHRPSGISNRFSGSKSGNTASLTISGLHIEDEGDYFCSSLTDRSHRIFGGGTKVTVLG
0.008
